Reference source: paper PMC13541613

- EXPERIMENTAL SYSTEM: ZNF721 DBD1 (Homo sapiens, UniProt Q8TF20-2 29-461)
- Sequence (Q8TF20 17-449): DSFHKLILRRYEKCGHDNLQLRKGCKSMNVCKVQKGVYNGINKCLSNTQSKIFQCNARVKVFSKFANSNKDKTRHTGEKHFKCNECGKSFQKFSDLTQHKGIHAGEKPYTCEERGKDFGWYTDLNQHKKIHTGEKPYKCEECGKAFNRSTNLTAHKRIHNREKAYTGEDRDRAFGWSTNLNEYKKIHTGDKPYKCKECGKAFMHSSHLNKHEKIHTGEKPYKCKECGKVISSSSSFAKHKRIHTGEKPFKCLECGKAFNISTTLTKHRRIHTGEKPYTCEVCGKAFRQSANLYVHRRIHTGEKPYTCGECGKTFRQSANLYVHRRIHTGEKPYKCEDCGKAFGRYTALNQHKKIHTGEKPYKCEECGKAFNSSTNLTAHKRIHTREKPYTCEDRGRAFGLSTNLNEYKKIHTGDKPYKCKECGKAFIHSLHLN
- PROTOCOL: HT-SELEX; 20 mM HEPES pH 7, 140 mM KCl, 5 mM NaCl, 1 mM K2HPO4, 2 mM MgSO4, 100 uM EGTA, ZnSO4, 0.1% Tween20; room temperature, 1 h; high values mean tight binding
- CONDITION INFO: protein: ivt; tags: eGFP (N-terminal); dsDNA, one strand shown
READOUT KIND: log10(binding signal) (log10 of the value in relative 10-mer count)
Short version: log10 scale, binding signal, relative 10-mer count.

Below: 2 sequences and their reported log10(binding signal).
>>> reported_measurement("CACTTCATAC")
0.00
>>> reported_measurement("GGGGGGTGGA")
-2.21

Please indicate log10(binding signal) recorded for CCACCACCCC
-1.71

Return the recorded log10(binding signal) value; entry: CGCCCTCCCC
-2.18

// Input: CGCTTTTTTC . Output its log10(binding signal) only.
-1.21

Give recorded log10(binding signal). GGGGTGGGCA
-2.42

Please report the measured log10(binding signal) for CCTACCCACC
-2.26

Note down log10(binding signal) recorded for CCGTCCACCC
-2.33

Tell us which log10(binding signal) value is on record for ACCCCCCAAC
-2.49

For the sequence CACCCCAACC , give its reported log10(binding signal).
-2.21

Quote log10(binding signal) reported for GCACCCCACC please.
-2.55

Consider the sequence TAAAAAAGCA and give its recorded log10(binding signal).
-2.09

###

- EXPERIMENTAL SYSTEM: ZNF721 DBD1 (Homo sapiens, UniProt Q8TF20-2 29-461)
- PROTOCOL: HT-SELEX; 20 mM HEPES pH 7, 140 mM KCl, 5 mM NaCl, 1 mM K2HPO4, 2 mM MgSO4, 100 uM EGTA, ZnSO4, 0.1% Tween20; room temperature, 1 h; high values mean tight binding
- CONDITION INFO: protein: ivt; tags: eGFP (N-terminal); dsDNA, one strand shown
Listed below: binding signal values for each entry.
Please reply with the bare figure in relative 10-mer count and do not write the unit itself.

>>> reported_measurement("AAAAACAAGC")
0.0116
>>> reported_measurement("CCCCCAGCCC")
0.00587
>>> reported_measurement("CAGCCCCCCC")
0.00284
>>> reported_measurement("AGAAAAAACA")
0.00211
>>> reported_measurement("CCCCGTCCCC")
0.00789
>>> reported_measurement("CAGCATCCCC")
0.00165

# return recorded binding signal for input ACGAAAAAAA
0.0146

Give the measured binding signal for CCGCCCTCCC
0.00642

Hello, please tell me recorded binding signal for this one: CCGCCACCCA
0.00523

Quickly give me recorded binding signal for CCCCCCGACC
0.00482

###

- EXPERIMENTAL SYSTEM: ZNF721 DBD2 (Homo sapiens, UniProt Q8TF20-2 395-923)
- Sequence (Q8TF20 383-911): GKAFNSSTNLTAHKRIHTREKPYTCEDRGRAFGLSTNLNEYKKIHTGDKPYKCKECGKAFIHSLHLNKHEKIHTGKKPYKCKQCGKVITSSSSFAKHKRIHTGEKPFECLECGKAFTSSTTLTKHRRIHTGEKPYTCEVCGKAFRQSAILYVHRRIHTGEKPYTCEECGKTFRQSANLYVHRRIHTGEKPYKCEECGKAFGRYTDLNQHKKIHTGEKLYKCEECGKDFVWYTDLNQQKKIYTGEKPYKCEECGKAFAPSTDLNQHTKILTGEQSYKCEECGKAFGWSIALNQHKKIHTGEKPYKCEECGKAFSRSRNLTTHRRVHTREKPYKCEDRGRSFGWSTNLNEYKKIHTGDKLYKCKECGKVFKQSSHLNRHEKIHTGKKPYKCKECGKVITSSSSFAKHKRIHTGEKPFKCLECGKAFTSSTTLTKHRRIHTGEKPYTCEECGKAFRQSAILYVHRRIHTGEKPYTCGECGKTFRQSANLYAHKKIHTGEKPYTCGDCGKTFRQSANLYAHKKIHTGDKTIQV
- PROTOCOL: HT-SELEX; 20 mM HEPES pH 7, 140 mM KCl, 5 mM NaCl, 1 mM K2HPO4, 2 mM MgSO4, 100 uM EGTA, ZnSO4, 0.1% Tween20; room temperature, 1 h; high values mean tight binding
- CONDITION INFO: protein: ivt; tags: eGFP (N-terminal); dsDNA, one strand shown
// binding signal lookup, one value per entry
Only the number, expressed in relative 10-mer count, is required.

>>> reported_measurement("CACCCACACC")
0.00395
>>> reported_measurement("CCCCCTCGCC")
0.00288
>>> reported_measurement("AGCGTCTCCT")
0.194
>>> reported_measurement("CAACCCCCAC")
0.00216
>>> reported_measurement("CCACACCCCC")
0.00276
>>> reported_measurement("CCCACCCGCA")
0.00563

Return binding signal for the following sequence: AAAAAAGCTC
0.00515

Please give the documented binding signal of ATGGGGTGGG
0.00551

###

Listed here are sequences together with their documented binding signal.
- EXPERIMENTAL SYSTEM: ZNF721 full-length (Homo sapiens, UniProt Q8TF20-2 1-923)
- Sequence (Q8TF20 other isoform, or with tags, fused parts or gaps): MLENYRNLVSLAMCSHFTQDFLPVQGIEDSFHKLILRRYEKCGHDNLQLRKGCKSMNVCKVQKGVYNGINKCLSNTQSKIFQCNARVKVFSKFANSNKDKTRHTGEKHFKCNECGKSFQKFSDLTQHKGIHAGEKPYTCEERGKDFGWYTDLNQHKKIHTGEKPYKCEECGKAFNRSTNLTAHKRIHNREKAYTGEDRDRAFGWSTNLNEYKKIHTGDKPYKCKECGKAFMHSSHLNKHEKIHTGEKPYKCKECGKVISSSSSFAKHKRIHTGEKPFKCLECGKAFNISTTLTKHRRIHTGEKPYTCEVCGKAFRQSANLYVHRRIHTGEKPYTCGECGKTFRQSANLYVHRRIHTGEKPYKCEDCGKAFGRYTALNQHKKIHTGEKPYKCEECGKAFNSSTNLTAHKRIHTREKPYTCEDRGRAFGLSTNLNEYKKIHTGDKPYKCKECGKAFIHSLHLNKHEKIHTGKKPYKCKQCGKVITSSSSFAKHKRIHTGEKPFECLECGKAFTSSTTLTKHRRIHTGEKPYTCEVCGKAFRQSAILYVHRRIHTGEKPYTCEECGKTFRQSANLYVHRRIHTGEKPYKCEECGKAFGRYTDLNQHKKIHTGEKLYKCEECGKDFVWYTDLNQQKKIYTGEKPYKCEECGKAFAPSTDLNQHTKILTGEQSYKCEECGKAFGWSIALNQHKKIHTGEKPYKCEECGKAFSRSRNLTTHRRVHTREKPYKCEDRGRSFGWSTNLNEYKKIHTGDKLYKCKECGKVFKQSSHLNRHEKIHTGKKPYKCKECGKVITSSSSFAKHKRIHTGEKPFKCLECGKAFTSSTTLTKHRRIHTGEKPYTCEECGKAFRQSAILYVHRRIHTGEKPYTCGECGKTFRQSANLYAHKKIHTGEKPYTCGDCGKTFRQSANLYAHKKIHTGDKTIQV
- PROTOCOL: HT-SELEX; 20 mM HEPES pH 7, 140 mM KCl, 5 mM NaCl, 1 mM K2HPO4, 2 mM MgSO4, 100 uM EGTA, ZnSO4, 0.1% Tween20; room temperature, 1 h; high values mean tight binding
- CONDITION INFO: protein: ivt; tags: eGFP (N-terminal); dsDNA, one strand shown
Output spec: scalar in relative 10-mer count, unitless text.

# count of solved cases: 9
>>> reported_measurement("CTGCTTTTTC")
0.202
>>> reported_measurement("CCCCCATCCC")
0.173
>>> reported_measurement("AGAAAAAACA")
0.12
>>> reported_measurement("CCAACCCCAC")
0.128
>>> reported_measurement("CAGCCCCACC")
0.116
>>> reported_measurement("CGCACCACCC")
0.108
>>> reported_measurement("CCACCCCCCG")
0.179
>>> reported_measurement("CCCACCGTCC")
0.105
>>> reported_measurement("CCACCCCTCC")
0.209

Answer with reported binding signal of AAAAAACAGT
0.466

###

Examples of sequences with documented binding signal follow.
- EXPERIMENTAL SYSTEM: ZNF721 full-length (Homo sapiens, UniProt Q8TF20-2 1-923)
- PROTOCOL: HT-SELEX; 20 mM HEPES pH 7, 140 mM KCl, 5 mM NaCl, 1 mM K2HPO4, 2 mM MgSO4, 100 uM EGTA, ZnSO4, 0.1% Tween20; room temperature, 1 h; high values mean tight binding
- CONDITION INFO: protein: ivt; tags: eGFP (N-terminal); dsDNA, one strand shown
Write it as a number; the unit relative 10-mer count goes unstated.

Some entries whose results are on file:
>>> reported_measurement("CCCCCCGCCG")
0.104
>>> reported_measurement("AAGAAAAAAG")
0.166
>>> reported_measurement("CCACCACGCC")
0.105
>>> reported_measurement("AAAAAAAAGG")
0.175
>>> reported_measurement("AAGCAGTGTA")
0.142

Give binding signal for CGCTTCTTTC
0.12

###

- EXPERIMENTAL SYSTEM: ZNF721 DBD2 (Homo sapiens, UniProt Q8TF20-2 395-923)
- PROTOCOL: HT-SELEX; 20 mM HEPES pH 7, 140 mM KCl, 5 mM NaCl, 1 mM K2HPO4, 2 mM MgSO4, 100 uM EGTA, ZnSO4, 0.1% Tween20; room temperature, 1 h; high values mean tight binding
- CONDITION INFO: protein: ivt; tags: eGFP (N-terminal); dsDNA, one strand shown
binding signal values by entry
Give a bare numeral; the unit relative 10-mer count is implied.

>>> reported_measurement("CAGTGTATCC")
0.401

Name the recorded binding signal of the sequence listed here: ACCCACCCAC
0.00887

Give me measured binding signal, please, for this sequence: CAGCCCACCC
0.0841

Using the record for CTTTTTTTTC , state its measured binding signal.
0.0669

Report binding signal for CCCACGACCC
0.0018

Kindly indicate its recorded binding signal. Item: ACACCCACCC
0.00336

Consider the sequence CGTCCCCACC and give its recorded binding signal.
0.00467

Item CCACACCCAC : provide binding signal
0.00515

Assign binding signal to the following record: CCCTCCCCTC
0.0129

Recall and state the measured binding signal for GGTGGTGGGA .
0.00455

Using known records, supply binding signal for CCTCCCCCTC
0.00467

Quickly give me recorded binding signal for CCCCGCTCCC
0.00108

Kindly indicate its recorded binding signal. Item: CCCCCCACAC
0.00671

Give binding signal for AAACACTGTT
0.266

# return recorded binding signal for entry TCCCCCACCA
0.00407

###

- EXPERIMENTAL SYSTEM: ZNF721 DBD1 (Homo sapiens, UniProt Q8TF20-2 29-461)
- PROTOCOL: HT-SELEX; 20 mM HEPES pH 7, 140 mM KCl, 5 mM NaCl, 1 mM K2HPO4, 2 mM MgSO4, 100 uM EGTA, ZnSO4, 0.1% Tween20; room temperature, 1 h; high values mean tight binding
- CONDITION INFO: protein: ivt; tags: eGFP (N-terminal); dsDNA, one strand shown
Reported binding signal values follow for various sequences
Please provide the amount together with its unit, number first.

Sample answers from the record:
>>> reported_measurement("GGCGGGGGGA")
"0.00619 relative 10-mer count"
>>> reported_measurement("CCGCCTCCCC")
"0.00798 relative 10-mer count"

Jot down binding signal (ZNF721 DBD1 (Homo sapiens, UniProt Q8TF20-2 29-461)) of CTGCTTTTTC .
0.00491 relative 10-mer count

Print ZNF721 DBD1 (Homo sapiens, UniProt Q8TF20-2 29-461) binding signal for CCCCCCGCAC .
0.00372 relative 10-mer count

Enter measured binding signal, system ZNF721 DBD1 (Homo sapiens, UniProt Q8TF20-2 29-461), for the sequence shown: CCCACCCCAC
0.0155 relative 10-mer count

# assay system ZNF721 DBD1 (Homo sapiens, UniProt Q8TF20-2 29-461): give binding signal of CCCCCGCACC
0.00527 relative 10-mer count

# return binding signal for CCCCCCGCCA , test system: ZNF721 DBD1 (Homo sapiens, UniProt Q8TF20-2 29-461)
0.00445 relative 10-mer count

Param request: binding signal | system ZNF721 DBD1 (Homo sapiens, UniProt Q8TF20-2 29-461) | item GCCCACCCCA
0.00505 relative 10-mer count

Write down the reported binding signal (system: ZNF721 DBD1 (Homo sapiens, UniProt Q8TF20-2 29-461)) of AAAAACAGTA
0.00119 relative 10-mer count

Report binding signal from ZNF721 DBD1 (Homo sapiens, UniProt Q8TF20-2 29-461) testing of ACGCCCCACC
0.00271 relative 10-mer count

State, for ZNF721 DBD1 (Homo sapiens, UniProt Q8TF20-2 29-461), measured binding signal of the sequence listed here: AACAAAAAAA
0.0078 relative 10-mer count

// fetch binding signal for CCCCCACCCG ; system: ZNF721 DBD1 (Homo sapiens, UniProt Q8TF20-2 29-461)
0.00587 relative 10-mer count
